- method-summary: In vivo plasma pharmacokinetics in Balb-C mice (HPLC)
- condition-description: mouse, plasma, 10 mg/kg, intravenous route, read-out: Ke (converted)
metric: k el (s⁻¹)
Answers are plain numbers, in s⁻¹.

Exam item: // returns reported k el for input C[C@@H]1CCO[C@H]2Cn3cc(C(=O)NCc4ccc(F)cc4F)c(=O)c(O)c3C(=O)N12 [DTG, Dolutegravir]
Marked response: 1.81e-05

----------
- method-summary: In vivo plasma pharmacokinetics in Balb-C mice (HPLC)
- condition-description: mouse, plasma, 10 mg/kg, oral
metric: AUC (µg·h/mL)
Numbers only, in µg·h/mL.

Exam item: // returns reported AUC for input C[C@@H]1CCO[C@H]2Cn3cc(C(=O)NCc4ccc(F)cc4F)c(=O)c(O)c3C(=O)N12
Marked response: 405
